Where these numbers come from: ChEMBL document CHEMBL4020830

target.or.system: Peroxisome proliferator-activated receptor gamma (Homo sapiens, UniProt P37231)
Sequence (P37231 whole entry): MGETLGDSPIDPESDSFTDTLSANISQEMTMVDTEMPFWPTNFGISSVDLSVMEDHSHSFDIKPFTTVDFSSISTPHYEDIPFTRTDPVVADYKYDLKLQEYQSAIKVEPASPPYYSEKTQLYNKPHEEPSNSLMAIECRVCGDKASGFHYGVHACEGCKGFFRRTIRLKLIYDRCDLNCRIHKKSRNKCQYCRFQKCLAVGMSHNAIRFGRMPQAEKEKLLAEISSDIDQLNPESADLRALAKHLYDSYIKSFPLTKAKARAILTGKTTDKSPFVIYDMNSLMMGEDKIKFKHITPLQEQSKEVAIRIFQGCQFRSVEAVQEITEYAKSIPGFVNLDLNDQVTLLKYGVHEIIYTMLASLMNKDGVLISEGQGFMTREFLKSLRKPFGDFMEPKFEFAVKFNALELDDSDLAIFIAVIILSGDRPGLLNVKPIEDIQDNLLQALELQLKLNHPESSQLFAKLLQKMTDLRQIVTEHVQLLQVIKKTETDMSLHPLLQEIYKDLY
pEC50: −log10 of the molar value.
reported.metric: pEC50

1. O=C(O)CCCc1cc2cc(Cl)ccc2n1S(=O)(=O)c1ccc2ncsc2c1	5.39

====

target.or.system: Peroxisome proliferator-activated receptor gamma (Homo sapiens, UniProt P37231)
pEC50: −log10 of the molar value.
reported.metric: pEC50

1) O=C(O)CCCc1cc2cc(Cl)ccc2n1S(=O)(=O)c1ccc2ncsc2c1 [LANIFIBRANOR]	5.72

====

target.or.system: Peroxisome proliferator-activated receptor alpha (Mus musculus)
Sequence (P23204 whole entry, the tested form may be a part): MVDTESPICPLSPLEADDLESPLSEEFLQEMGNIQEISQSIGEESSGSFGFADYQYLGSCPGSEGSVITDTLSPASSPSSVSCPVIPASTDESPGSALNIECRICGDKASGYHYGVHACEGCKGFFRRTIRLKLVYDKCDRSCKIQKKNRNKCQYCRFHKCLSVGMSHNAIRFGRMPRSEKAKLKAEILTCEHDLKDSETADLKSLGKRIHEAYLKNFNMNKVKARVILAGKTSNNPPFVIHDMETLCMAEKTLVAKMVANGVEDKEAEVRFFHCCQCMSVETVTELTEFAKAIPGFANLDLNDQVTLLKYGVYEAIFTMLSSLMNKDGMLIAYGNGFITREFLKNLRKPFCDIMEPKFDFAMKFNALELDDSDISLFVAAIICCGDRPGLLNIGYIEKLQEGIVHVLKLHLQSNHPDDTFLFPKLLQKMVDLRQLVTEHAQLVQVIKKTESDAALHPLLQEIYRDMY
assay.protocol: Transactivation of mouse GAL4-fused PPARalpha LBD expressed in African green monkey COS7 cells co-expressing 5Gal4 pGL3 TK Luc after overnight incubation by luciferase reporter gene assay
pEC50: −log10 of the molar value.
reported.metric: pEC50

1) O=C(O)CCCc1cc2cc(Cl)ccc2n1S(=O)(=O)c1ccc2ncsc2c1	6.44

====

target.or.system: Peroxisome proliferator-activated receptor alpha (Homo sapiens)
Sequence (Q07869 whole entry): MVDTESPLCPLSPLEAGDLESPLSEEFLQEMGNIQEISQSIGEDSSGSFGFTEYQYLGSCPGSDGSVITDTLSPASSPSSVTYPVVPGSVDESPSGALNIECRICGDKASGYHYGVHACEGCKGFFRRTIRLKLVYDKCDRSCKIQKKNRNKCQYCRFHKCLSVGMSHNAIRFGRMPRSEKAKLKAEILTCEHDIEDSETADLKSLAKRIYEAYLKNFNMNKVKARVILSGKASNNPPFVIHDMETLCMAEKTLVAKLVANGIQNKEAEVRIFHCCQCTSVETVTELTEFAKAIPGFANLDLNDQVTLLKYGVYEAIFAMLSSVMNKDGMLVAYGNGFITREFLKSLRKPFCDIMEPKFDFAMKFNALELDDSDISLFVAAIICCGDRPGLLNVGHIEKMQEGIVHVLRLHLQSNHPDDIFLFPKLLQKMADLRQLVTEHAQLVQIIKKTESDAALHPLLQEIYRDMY
assay.protocol: Transactivation of human GAL4-fused PPARalpha LBD expressed in African green monkey COS7 cells co-expressing 5Gal4 pGL3 TK Luc after overnight incubation by luciferase reporter gene assay
Each record here notes measured EC50.
reported.metric: EC50 (nM)

1) O=C(O)CCCc1cc2cc(C(F)(F)F)ccc2n1S(=O)(=O)c1ccc(Cl)cc1	2820
2) CC(C)(CCc1cc2cc(Cl)ccc2n1S(=O)(=O)c1ccccc1)C(=O)O	160
3) O=C(O)CCCc1cc2cc(C(F)(F)F)ccc2n1S(=O)(=O)c1ccc2ncsc2c1	1620
4) Cc1nc2cc(S(=O)(=O)n3c(CCCC(=O)O)cc4cc(Cl)ccc43)ccc2s1	2360
